enrichment ratio values for the variants below.
B1: PhoQ; a variant is named by its letters at X, in order, P23837 (parent)
chain: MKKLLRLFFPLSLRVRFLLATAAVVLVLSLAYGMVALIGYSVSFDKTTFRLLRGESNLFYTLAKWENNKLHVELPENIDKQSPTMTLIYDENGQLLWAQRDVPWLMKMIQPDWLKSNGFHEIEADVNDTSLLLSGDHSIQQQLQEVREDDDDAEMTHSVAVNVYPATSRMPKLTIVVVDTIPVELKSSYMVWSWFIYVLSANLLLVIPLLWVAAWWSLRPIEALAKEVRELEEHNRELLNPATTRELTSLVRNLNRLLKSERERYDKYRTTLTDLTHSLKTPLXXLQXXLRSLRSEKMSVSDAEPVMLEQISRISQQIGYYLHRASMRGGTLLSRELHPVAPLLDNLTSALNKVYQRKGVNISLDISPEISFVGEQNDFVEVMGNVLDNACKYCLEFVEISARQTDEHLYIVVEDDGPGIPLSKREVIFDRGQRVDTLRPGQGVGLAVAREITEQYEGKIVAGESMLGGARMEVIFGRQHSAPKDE

Variants of: B1
protocol-summary: enrichment ratio after two sorts for PhoP signalling (ratio (wild type AVST 3.29)); higher = more functional
run-parameters: with PhoP (E. coli)
The full ranking holds about 140,000 sequences; the median of “enrichment ratio after two sorts for PhoP signalling” is about 0, and the highest 2% start at about 11. This excerpt belongs to a sample that is enriched for the highest values.
property-label: enrichment ratio

[[record]]
mutant_name = "SLVK"
reading = 1.38

[[record]]
mutant_name = "KLMC"
reading = "≤ 0.25"

[[record]]
mutant_name = "TKLS"
reading = 19.9

[[record]]
mutant_name = "SEFC"
reading = 10.4

[[record]]
mutant_name = "AFNE"
reading = "≤ 0.25"

[[record]]
mutant_name = "FYDW"
reading = "≤ 0.25"

[[record]]
mutant_name = "YTLC"
reading = 11.3

[[record]]
mutant_name = "IRFS"
reading = "≤ 0.25"

[[record]]
mutant_name = "GIPQ"
reading = "≤ 0.25"

[[record]]
mutant_name = "AGQV"
reading = "≤ 0.25"

[[record]]
mutant_name = "RCNS"
reading = "≤ 0.25"

[[record]]
mutant_name = "SEMG"
reading = 21.5

[[record]]
mutant_name = "VFKE"
reading = "≤ 0.25"

[[record]]
mutant_name = "VAML"
reading = 7.99

[[record]]
mutant_name = "GRAC"
reading = "≤ 0.25"

[[record]]
mutant_name = "SYEL"
reading = "≤ 0.25"

[[record]]
mutant_name = "MKLC"
reading = "≤ 0.25"

[[record]]
mutant_name = "HWCD"
reading = 2.96

[[record]]
mutant_name = "IILC"
reading = "≤ 0.25"

[[record]]
mutant_name = "FCYK"
reading = "≤ 0.25"

[[record]]
mutant_name = "YYLC"
reading = "≤ 0.25"

[[record]]
mutant_name = "TNRW"
reading = "≤ 0.25"

[[record]]
mutant_name = "VYRH"
reading = "≤ 0.25"

[[record]]
mutant_name = "PCRA"
reading = "≤ 0.25"

[[record]]
mutant_name = "QDRV"
reading = "≤ 0.25"

[[record]]
mutant_name = "RCLW"
reading = "≤ 0.25"

[[record]]
mutant_name = "RMDS"
reading = "≤ 0.25"

[[record]]
mutant_name = "FLRE"
reading = "≤ 0.25"

[[record]]
mutant_name = "TVMI"
reading = 1.87

[[record]]
mutant_name = "INFA"
reading = "≤ 0.25"

[[record]]
mutant_name = "HWDL"
reading = "≤ 0.25"

[[record]]
mutant_name = "MREV"
reading = "≤ 0.25"

[[record]]
mutant_name = "KVGI"
reading = "≤ 0.25"

[[record]]
mutant_name = "SEVK"
reading = 12.3

[[record]]
mutant_name = "TKLC"
reading = 19.8

[[record]]
mutant_name = "DHDV"
reading = "≤ 0.25"

[[record]]
mutant_name = "QKAH"
reading = "≤ 0.25"

[[record]]
mutant_name = "HYLA"
reading = "≤ 0.25"

[[record]]
mutant_name = "AMIT"
reading = "≤ 0.25"

[[record]]
mutant_name = "TAFY"
reading = 2.48

[[record]]
mutant_name = "SALC"
reading = 12

[[record]]
mutant_name = "AKLS"
reading = 13.1

[[record]]
mutant_name = "HKLC"
reading = "≤ 0.25"

[[record]]
mutant_name = "AYLC"
reading = 0.263

[[record]]
mutant_name = "FTNT"
reading = "≤ 0.25"

[[record]]
mutant_name = "SRSH"
reading = "≤ 0.25"

